# Test protocol: recombinant UMI read abundance after kanamycin selection (control-corrected) (log10(CPM+1)); higher = more efficient recombination; extreme values may be limits of the assay; sequences stand for … in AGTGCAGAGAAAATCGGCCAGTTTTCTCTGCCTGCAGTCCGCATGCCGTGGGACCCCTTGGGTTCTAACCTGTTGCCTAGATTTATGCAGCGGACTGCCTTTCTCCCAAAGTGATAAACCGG…AGGTTGGTTTCACT; site = the 11-nt donor;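 also: IS621 bridge recombinase in Escherichia coli cells against a fixed T5 target plasmid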
Reported recombinant UMI read abundance (log10) values for the following sequences.

Record sequence | recombinant UMI read abundance (log10)
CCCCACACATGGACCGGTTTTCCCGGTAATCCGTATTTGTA (site CCCCACACTGA) | 0
CTAGTAACATGGACCGGTTTTCCCGGTAATCCGTATTTGGA (site CTATTAACTTC) | 0.00934
CGATCGTCATGGACCGGTTTTCCCGGTAATCCGTATTTGCC (site CGATCGTCTGG) | 1.05
GGTGAACCATGGACCGGTTTTCCCGGTAATCCGTATTTGGG (site GGTGAACCTCC) | 0
CTGTACACATGGACCGGTTTTCCCGGTAATCCGTATTTGCT (site CTCTACACTAG) | 1.52

The reported numbers originate from the supplement of paper PMC11208160.
